# ASSAY_SYSTEM: IκBα ubiquitinating enzyme (SCF complex: ROC1, Cullin1, Skp1, His-TrCP1; with E1, UbcH5b) (Homo sapiens, UniProt P62877+P63208+Q13616+Q9Y297)
# Construct: His (polyhistidine); made in house; host or cells: insect cells (baculovirus) for the SCF complex and His-E1; E. coli for His-UBCH5b
# Sequence (Q9Y297 whole entry): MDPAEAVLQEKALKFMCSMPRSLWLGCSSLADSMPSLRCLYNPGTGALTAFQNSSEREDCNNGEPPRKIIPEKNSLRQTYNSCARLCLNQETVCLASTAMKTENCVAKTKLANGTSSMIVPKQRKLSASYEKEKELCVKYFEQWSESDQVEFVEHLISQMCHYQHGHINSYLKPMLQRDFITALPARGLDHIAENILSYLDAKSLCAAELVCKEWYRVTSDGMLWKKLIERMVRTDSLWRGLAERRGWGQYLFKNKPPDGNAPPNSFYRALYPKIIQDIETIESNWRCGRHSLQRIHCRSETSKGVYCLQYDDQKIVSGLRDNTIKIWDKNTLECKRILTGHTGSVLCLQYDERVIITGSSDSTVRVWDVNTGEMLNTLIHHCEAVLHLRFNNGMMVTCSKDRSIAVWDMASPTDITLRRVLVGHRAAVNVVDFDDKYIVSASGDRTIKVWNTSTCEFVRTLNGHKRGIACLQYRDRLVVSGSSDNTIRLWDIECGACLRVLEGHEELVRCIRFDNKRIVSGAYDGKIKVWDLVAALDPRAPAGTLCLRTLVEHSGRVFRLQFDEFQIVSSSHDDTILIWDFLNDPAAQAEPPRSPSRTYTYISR
# Sequence (Q13616 whole entry): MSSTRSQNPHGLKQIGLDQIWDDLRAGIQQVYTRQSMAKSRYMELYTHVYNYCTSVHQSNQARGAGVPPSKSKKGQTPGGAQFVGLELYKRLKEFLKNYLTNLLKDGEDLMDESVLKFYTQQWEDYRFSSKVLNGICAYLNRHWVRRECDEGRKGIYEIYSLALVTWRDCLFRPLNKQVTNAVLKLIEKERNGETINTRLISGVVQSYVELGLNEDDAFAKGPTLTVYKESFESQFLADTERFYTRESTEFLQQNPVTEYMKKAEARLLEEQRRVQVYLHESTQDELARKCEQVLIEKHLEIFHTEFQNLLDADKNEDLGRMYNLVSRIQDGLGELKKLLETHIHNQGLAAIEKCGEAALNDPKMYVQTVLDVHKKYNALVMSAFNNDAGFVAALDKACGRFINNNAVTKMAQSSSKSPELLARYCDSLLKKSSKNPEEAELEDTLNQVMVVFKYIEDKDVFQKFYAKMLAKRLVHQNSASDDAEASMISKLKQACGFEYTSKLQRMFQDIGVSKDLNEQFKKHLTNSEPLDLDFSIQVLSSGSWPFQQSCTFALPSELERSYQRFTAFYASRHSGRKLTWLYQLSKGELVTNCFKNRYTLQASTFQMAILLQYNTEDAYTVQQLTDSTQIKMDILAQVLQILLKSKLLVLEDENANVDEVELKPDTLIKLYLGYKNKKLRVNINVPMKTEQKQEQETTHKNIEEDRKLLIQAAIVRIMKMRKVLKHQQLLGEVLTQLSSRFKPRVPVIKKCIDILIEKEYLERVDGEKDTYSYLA
# Sequence (P63208 whole entry): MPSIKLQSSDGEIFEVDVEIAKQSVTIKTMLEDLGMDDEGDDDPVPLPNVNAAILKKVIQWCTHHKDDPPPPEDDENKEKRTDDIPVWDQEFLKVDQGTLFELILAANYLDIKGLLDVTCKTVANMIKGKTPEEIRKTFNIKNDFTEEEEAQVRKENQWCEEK
# Sequence (P62877 whole entry): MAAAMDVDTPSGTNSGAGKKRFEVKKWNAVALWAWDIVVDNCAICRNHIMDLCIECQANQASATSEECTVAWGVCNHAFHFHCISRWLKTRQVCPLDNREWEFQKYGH
# ASSAY_EXPLANATION: Measurement of ubiquitinating enzyme activity (IκBα ubiquitination, time-resolved fluorescence with Eu(K)-labeled ubiquitin and XL665-labeled anti-GST antibody)
# Format: biochemical
# CONDITION_INFO: enzyme activity inhibition test, method (1), Table 5; read-out: EVALUATION
ASSAY_ENDPOINT: IC50

>>> recorded_result("COc1cc(/C=C2\\C(=O)N(c3cccc(C(=O)O)c3)N=C2C)ccc1OCC1CC1")
"10 to 20 µM"
>>> recorded_result("O=C(O)c1ccc(N2N=C(C3CC3)/C(=C/c3ccc(-n4ccnc4)cc3)C2=O)cc1")
"< 10 µM"
>>> recorded_result("CC1=NN(c2ccc(S(N)(=O)=O)cc2)C(=O)/C1=C\\c1ccc(C(=O)O)cc1")
"10 to 20 µM"
>>> recorded_result("COc1ccc(C2=NN(c3ccccc3)C(=O)/C2=C\\c2ccc(CO)o2)cc1")
"< 40 µM"
>>> recorded_result("COc1cc(/C=C2\\C(=O)N(c3ccccc3)N=C2c2ccncc2)ccc1O")
"< 40 µM"

====

# ASSAY_SYSTEM: IκBα ubiquitinating enzyme (SCF complex: ROC1, Cullin1, Skp1, His-TrCP1; with E1, UbcH5b) (Homo sapiens, UniProt P62877+P63208+Q13616+Q9Y297)
# Construct: His (polyhistidine); made in house; host or cells: insect cells (baculovirus) for the SCF complex and His-E1; E. coli for His-UBCH5b
# ASSAY_EXPLANATION: Measurement of ubiquitinating enzyme activity (IκBα ubiquitination, time-resolved fluorescence with Eu(K)-labeled ubiquitin and XL665-labeled anti-GST antibody)
# Assay type: biochemical
# CONDITION_INFO: enzyme activity inhibition test, method (1), Table 5; read-out: EVALUATION
# Method: Method 1: Measurement of ubiquitinating enzyme activity A recombinant vector His-UBCH5b containing a polyhistidine tag (His) and UBCH5b was prepared. E. coli was transformed with the vector, the protein was expressed, and affinity purification was carried out using Ni-NTA agarose (Qiagen). […]
pIC50: −log10 of the molar value.
# pIC50 annotations
ASSAY_ENDPOINT: pIC50

>>> recorded_result("COCC1=NN(c2ccc(C(=O)O)cc2)C(=O)/C1=C\\c1ccc(N2CCCC2)cc1 [Compound 236]")
"> 5.00"
>>> recorded_result("CC1=NN(c2ccc(C(=O)N3CCC(CO)CC3)cc2)C(=O)/C1=C\\c1ccc2c(c1)OCCO2 [Compound 387]")
"4.70 to 5.00"
>>> recorded_result("CC1=NN(c2cccc(C(=O)O)c2)C(=O)C1=Cc1cc2ccccc2n1C [Compound 359]")
"> 5.00"
>>> recorded_result("CC1=NN(c2cccc(C(=O)O)c2)C(=O)/C1=C\\c1ccc2cc[nH]c2c1 [Compound 381]")
"> 5.00"
>>> recorded_result("CC1=NN(c2ccc(S(N)(=O)=O)cc2)C(=O)/C1=C\\c1ccc(-n2cncn2)cc1 [Compound 109]")
"> 4.40"
>>> recorded_result("CC1=NN(c2cccc(C(=O)O)c2)C(=O)/C1=C\\c1ccc(-n2cccn2)cc1 [Compound 379]")
"> 5.00"
>>> recorded_result("O=C1/C(=C\\c2ccc(CO)o2)C(Cc2ccccc2)=NN1c1ccccc1 [Compound 27]")
"> 5.00"
>>> recorded_result("COC(=O)N1CCN(c2ccc(C=C3C(=O)N(c4ccc(C(=O)O)cc4)N=C3c3ccccn3)cc2)CC1 [Compound 335]")
"4.70 to 5.00"
>>> recorded_result("O=C(O)c1ccc(N2N=C(Cc3ccccc3)/C(=C/c3ccc(-n4cncn4)cc3)C2=O)cc1 [Compound 276]")
"> 4.40"
>>> recorded_result("COCC1=NN(c2ccc(C(=O)O)cc2)C(=O)/C1=C\\c1ccc(N2CCN(C)CC2)cc1 [Compound 241]")
"> 4.40"
>>> recorded_result("CC1=NN(c2cccc(S(N)(=O)=O)c2)C(=O)/C1=C\\c1ccc2cc[nH]c2c1 [Compound 149]")
"> 5.00"
>>> recorded_result("COc1ccccc1-c1ccc(/C=C2\\C(=O)N(c3cccc(C(=O)O)c3)N=C2C)o1 [Compound 487]")
"> 4.40"
>>> recorded_result("CC1=NN(c2cccc(C(=O)N3CCC(CO)CC3)c2)C(=O)/C1=C\\c1ccc2[nH]ccc2c1 [Compound 371]")
"> 5.00"
>>> recorded_result("COCC1=NN(c2ccccc2)C(=O)/C1=C\\c1ccc2ccccc2c1 [Compound 2]")
"4.70 to 5.00"
>>> recorded_result("CCCCC1=NN(c2ccccc2)C(=O)/C1=C\\c1ccc(-n2cncn2)cc1 [Compound 59]")
"4.70 to 5.00"
>>> recorded_result("CC1=NN(c2cccc(S(N)(=O)=O)c2)C(=O)/C1=C\\c1ccc(N2CCN(c3ccc(F)cc3)CC2)cc1 [Compound 177]")
"4.70 to 5.00"
